TEST_NAME: Example 2 cellular cytotoxicity in Vero E6 cells (MTT)
DETAILS: monkey
PARAMETER: CC50

CC50 reading for N#C[C@@]1(c2ccc3c(N)ncnn23)O[C@H](CO)[C@@H](O)[C@H]1O : > 50 µM

* * *

Test system: SARS-CoV-2 isolate USA-WA1/2020
TEST_NAME: Example 7 SARS-CoV-2 infection in Calu-3 cells (qRT-PCR)
Type: cell-based
DETAILS: Severe acute respiratory syndrome coronavirus 2; SARS-CoV-2, Calu-3 cells, MOI 0.01, 48 hours
PARAMETER: EC50 (nM)
Write down the numeric answer in nM and omit the unit.

// EC50 value for CCC(CC)COC(=O)[C@H](C)N[P@](=O)(OC[C@H]1O[C@@](C#N)(c2ccc3c(N)ncnn23)[C@H](O)[C@@H]1O)Oc1ccccc1 : 230

Reported EC50 for N#C[C@@]1(c2ccc3c(N)ncnn23)O[C@H](CO)[C@@H](O)[C@H]1O was 150

* * *

System: SARS-CoV-2 isolate USA-WA1/2020
TEST_NAME: Example 7 SARS-CoV-2 infection in Vero E6 cells (qRT-PCR)
Assay type: cell-based
DETAILS: Severe acute respiratory syndrome coronavirus 2, Vero C1008, SARS-CoV-2, Vero E6 cells, MOI 0.01, 48 hours
PARAMETER: EC50 (nM)
State the answer as a number, implicitly in nM.

For N#C[C@@]1(c2ccc3c(N)ncnn23)O[C@H](CO)[C@@H](O)[C@H]1O the molecule record lists EC50 as 380

* * *

TEST_NAME: Example 7 cell viability assay (CellTiter-Glo) in Huh7.5 cells
DETAILS: human
PARAMETER: CC50 at 48.5 h (µM)
Write down the numeric answer in µM and omit the unit.

Measured CC50 at 48.5 h of CCC(CC)COC(=O)[C@H](C)N[P@](=O)(OC[C@H]1O[C@@](C#N)(c2ccc3c(N)ncnn23)[C@H](O)[C@@H]1O)Oc1ccccc1 : 15.2

* * *

TEST_NAME: Example 8 cytotoxicity in MRC-5 cells (CellTiter-Glo)
Format: cell-based
DETAILS: human
PARAMETER: CC50 at 72 h

CC50 at 72 h reading for CCC(CC)COC(=O)[C@H](C)N[P@](=O)(OC[C@H]1O[C@@](C#N)(c2ccc3c(N)ncnn23)[C@H](O)[C@@H]1O)Oc1ccccc1 [RDV, Remdesivir] : > 50 µM

* * *

TEST_NAME: Example 7 cell viability assay (CellTiter-Glo) in PSC-human lung cells
PARAMETER: CC50 at 48.5 h (µM)
Record the value in µM, omitting the unit from your answer.

The reported CC50 at 48.5 h of the molecule CCC(CC)COC(=O)[C@H](C)N[P@](=O)(OC[C@H]1O[C@@](C#N)(c2ccc3c(N)ncnn23)[C@H](O)[C@@H]1O)Oc1ccccc1 was 32.7

* * *

Assignment: determine reported pEC50 for the given molecules.
Tested on: SARS-CoV-2 isolate USA-WA1/2020
TEST_NAME: Example 3 SARS-CoV-2 infection in Vero E6 cells (qRT-PCR Spike RNA)
Assay type: cell-based
DETAILS: Severe acute respiratory syndrome coronavirus 2, Vero C1008; SARS-CoV-2 USA-WA1/2020, Vero E6 cells, MOI 0.01, 48 hours, mean±SD
pEC50 field: float, defined as -log10 of concentration (mol/L).

Lab note: N#C[C@@]1(c2ccc3c(N)ncnn23)O[C@H](CO)[C@@H](O)[C@H]1O gave pEC50 of 5.77

Note to self: pEC50 recorded for CCC(CC)COC(=O)[C@H](C)N[P@](=O)(OC[C@H]1O[C@@](C#N)(c2ccc3c(N)ncnn23)[C@H](O)[C@@H]1O)Oc1ccccc1 was 5.34
